Where these numbers come from: ChEMBL document CHEMBL5506043

Entries and their IC50
- measured on: Protein-arginine deiminase type-2 (Homo sapiens, UniProt Q9Y2J8)
- Sequence (Q9Y2J8 whole entry): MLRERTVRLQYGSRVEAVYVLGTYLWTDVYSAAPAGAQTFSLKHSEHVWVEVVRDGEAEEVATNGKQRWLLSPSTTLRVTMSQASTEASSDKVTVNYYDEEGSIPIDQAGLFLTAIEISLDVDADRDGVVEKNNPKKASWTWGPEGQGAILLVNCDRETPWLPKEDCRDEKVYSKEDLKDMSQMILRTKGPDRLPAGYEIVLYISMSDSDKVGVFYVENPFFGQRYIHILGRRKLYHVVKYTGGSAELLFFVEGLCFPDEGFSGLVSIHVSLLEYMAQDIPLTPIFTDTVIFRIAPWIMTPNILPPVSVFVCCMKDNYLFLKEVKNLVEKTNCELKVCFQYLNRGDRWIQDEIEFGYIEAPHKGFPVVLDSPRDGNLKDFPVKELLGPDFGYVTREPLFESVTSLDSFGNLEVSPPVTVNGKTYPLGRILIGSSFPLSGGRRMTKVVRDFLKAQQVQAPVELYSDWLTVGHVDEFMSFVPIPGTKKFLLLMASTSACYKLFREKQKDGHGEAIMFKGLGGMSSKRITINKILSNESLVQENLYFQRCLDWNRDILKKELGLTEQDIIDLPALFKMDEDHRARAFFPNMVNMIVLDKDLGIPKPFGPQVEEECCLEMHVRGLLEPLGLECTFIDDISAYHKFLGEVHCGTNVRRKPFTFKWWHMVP
Your answer should be a plain number; it is taken to be in µM.

| smiles | measured on | units text | IC50 |
| --- | --- | --- | --- |
| COc1ccc(-c2nc(C(=O)N[C@@H](CCCNC(=N)CCl)C(=O)NCc3ccccc3)cc3c2[nH]c2ccccc23)cc1OC | Protein-arginine deiminase type-2 (Homo sapiens, UniProt Q9Y2J8) | µM | 4.59 |
| N=C(CCl)NCCC[C@H](NC(=O)c1cc2c([nH]c3ccccc32)c(-c2ccc(F)cc2)n1)C(=O)NCc1ccccc1 | Protein-arginine deiminase type-2 (Homo sapiens, UniProt Q9Y2J8) | µM | 2.95 |
| N=C(CCl)NCCC[C@H](NC(=O)c1cc2c([nH]c3ccccc32)c(C2CCCCC2)n1)C(=O)NCc1ccccc1 | Protein-arginine deiminase type-2 (Homo sapiens, UniProt Q9Y2J8) | µM | 2.32 |
| CCCCCCCCCc1nc(C(=O)N[C@@H](CCCNC(=N)CCl)C(=O)NCc2ccccc2)cc2c1[nH]c1ccccc12 | Protein-arginine deiminase type-2 (Homo sapiens, UniProt Q9Y2J8) | µM | 16.8 |

IN: Which IC50 is reported with Protein-arginine deiminase type-2 (Homo sapiens, UniProt Q9Y2J8) for this entry: CC(C)Cc1nc(C(=O)N[C@@H](CCCNC(=N)CCl)C(=O)NCc2ccccc2)cc2c1[nH]c1ccccc12 ?
OUT: 1.03

IN: Protein-arginine deiminase type-2 (Homo sapiens, UniProt Q9Y2J8) / IC50 / N=C(CCl)NCCC[C@H](NC(=O)c1cc2c([nH]c3ccccc32)c(-c2ncc[nH]2)n1)C(=O)NCc1ccccc1 : value?
OUT: 10.8

----------
Below, each entry is listed with its recorded log10 of IC50.
- System: 4T1
- method description: Antiproliferative activity against mouse 4T1 cells assessed as inhibition of cell growth incubated for 48 hrs by MTT assay
- Assay type: functional, cell-based
- details: 4T1, 48 h
Recorded IC50 (log10, µM)

| smiles | measured on | endpoint name | experimental result |
| --- | --- | --- | --- |
| CC(C)c1nc(C(=O)N[C@@H](CCCNC(=N)CCl)C(=O)NCc2ccccc2)cc2c1[nH]c1ccccc12 | 4T1 | log10 of IC50 | 1.06 |
| N=C(CCl)NCCC[C@H](NC(=O)c1cc2c([nH]c3ccccc32)c(-c2cc3ccccc3cn2)n1)C(=O)NCc1ccccc1 | 4T1 | log10 of IC50 | 0.17 |
| CCC(CC)c1nc(C(=O)N[C@@H](CCCNC(=N)CCl)C(=O)NCc2ccccc2)cc2c1[nH]c1ccccc12 | 4T1 | log10 of IC50 | 0.75 |
| N=C(CCl)NCCC[C@H](NC(=O)c1cc2c([nH]c3ccccc32)c(-c2nc3ccccc3[nH]2)n1)C(=O)NCc1ccccc1 | 4T1 | log10 of IC50 | 0.16 |

IN: Look up log10 of IC50: N=C(CCl)NCCC[C@H](NC(=O)c1c[nH]c2ccccc12)C(=O)NCc1ccccc1
OUT: 2.00

IN: I'd like to know its log10 of IC50. The molecule in question is N=C(CCl)NCCC[C@H](NC(=O)c1cc2c([nH]c3ccccc32)c(C2CCCCC2)n1)C(=O)NCc1ccccc1
OUT: 0.74

IN: What does the data say about its log10 of IC50? Entry: N=C(CCl)NCCC[C@H](NC(=O)c1cc2c([nH]c3ccccc32)c(-c2ccc(Cl)cc2)n1)C(=O)NCc1ccccc1
OUT: 0.97

IN: Any idea what log10 of IC50 was measured for COc1ccc(-c2nc(C(=O)N[C@@H](CCCNC(=N)CCl)C(=O)NCc3ccccc3)cc3c2[nH]c2ccccc23)cc1OC ?
OUT: 1.06

IN: Please report the recorded log10 of IC50 for Cc1nc(C(=O)N[C@@H](CCCNC(=N)CCl)C(=O)NCc2ccccc2)cc2c1[nH]c1ccccc12 .
OUT: 1.28

IN: log10 of IC50 lookup needed for N=C(CCl)NCCC[C@H](NC(=O)c1ccc2nccnc2c1)C(=O)NCc1ccccc1 , thanks.
OUT: 1.66

IN: State the recorded log10 of IC50 for this entry: Cc1ccc(-c2nc(C(=O)N[C@@H](CCCNC(=N)CCl)C(=O)NCc3ccccc3)cc3c2[nH]c2ccccc23)cc1
OUT: 0.90

IN: Need log10 of IC50 of COc1cccc(OC)c1-c1nc(C(=O)N[C@@H](CCCNC(=N)CCl)C(=O)NCc2ccccc2)cc2c1[nH]c1ccccc12 , thanks.
OUT: 1.14

IN: Given the entry N=C(CCl)NCCC[C@H](NC(=O)c1cc2c([nH]c3ccccc32)c(-c2ncc[nH]2)n1)C(=O)NCc1ccccc1 , report its measured log10 of IC50.
OUT: 0.82

IN: // returns reported log10 of IC50 for input N=C(CCl)NCCC[C@H](NC(=O)c1cc2c([nH]c3ccccc32)c(-c2cccs2)n1)C(=O)NCc1ccccc1
OUT: 0.88

----------
This section lists pIC50 readings for Protein-arginine deiminase type-4 (Homo sapiens, UniProt Q9UM07).
pIC50 here: minus log base 10 of the concentration, concentration in moles per litre.

| smiles | experimental result |
| --- | --- |
| COC(Cc1nc(C(=O)N[C@@H](CCCNC(=N)CCl)C(=O)NCc2ccccc2)cc2c1[nH]c1ccccc12)OC | 6.02 |

IN: Param readout = pIC50; param system = Protein-arginine deiminase type-4 (Homo sapiens, UniProt Q9UM07); param query = N=C(CCl)NCCC[C@H](NC(=O)c1cc2c([nH]c3ccccc32)c(-c2ccccc2)n1)C(=O)NCc1ccccc1 ; response: value
Sequence (Q9UM07 whole entry): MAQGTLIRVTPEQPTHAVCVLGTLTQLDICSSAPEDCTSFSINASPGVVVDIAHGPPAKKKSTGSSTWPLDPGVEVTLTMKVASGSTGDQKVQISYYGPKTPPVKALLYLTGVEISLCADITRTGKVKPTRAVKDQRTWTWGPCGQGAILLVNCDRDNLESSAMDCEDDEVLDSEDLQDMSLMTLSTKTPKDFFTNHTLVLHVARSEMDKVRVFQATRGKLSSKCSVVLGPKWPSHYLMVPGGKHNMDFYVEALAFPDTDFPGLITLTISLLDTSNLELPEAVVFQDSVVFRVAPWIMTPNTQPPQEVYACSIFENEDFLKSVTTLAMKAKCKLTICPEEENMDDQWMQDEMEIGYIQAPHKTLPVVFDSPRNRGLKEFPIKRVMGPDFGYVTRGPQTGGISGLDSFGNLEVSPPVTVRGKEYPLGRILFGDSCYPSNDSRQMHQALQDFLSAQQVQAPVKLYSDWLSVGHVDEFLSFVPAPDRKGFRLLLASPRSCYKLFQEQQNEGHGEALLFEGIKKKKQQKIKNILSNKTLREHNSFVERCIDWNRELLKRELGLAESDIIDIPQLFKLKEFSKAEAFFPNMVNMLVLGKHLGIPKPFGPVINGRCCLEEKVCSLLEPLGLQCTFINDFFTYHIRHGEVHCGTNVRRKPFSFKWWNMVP
OUT: 6.10

IN: Notebook entry, Protein-arginine deiminase type-4 (Homo sapiens, UniProt Q9UM07) assay: pIC50 of CCCCCCCCCc1nc(C(=O)N[C@@H](CCCNC(=N)CCl)C(=O)NCc2ccccc2)cc2c1[nH]c1ccccc12 = ?
OUT: 4.85

IN: # value lookup — system Protein-arginine deiminase type-4 (Homo sapiens, UniProt Q9UM07), readout pIC50, item COc1ccc(-c2nc(C(=O)N[C@@H](CCCNC(=N)CCl)C(=O)NCc3ccccc3)cc3c2[nH]c2ccccc23)cc1OC
OUT: 5.82

IN: Entry COc1cccc(OC)c1-c1nc(C(=O)N[C@@H](CCCNC(=N)CCl)C(=O)NCc2ccccc2)cc2c1[nH]c1ccccc12 , system Protein-arginine deiminase type-4 (Homo sapiens, UniProt Q9UM07): what pIC50 was measured?
OUT: 5.72

IN: Find the measured pIC50: item Cc1nc(C(=O)N[C@@H](CCCNC(=N)CCl)C(=O)NCc2ccccc2)cc2c1[nH]c1ccccc12 , target or system Protein-arginine deiminase type-4 (Homo sapiens, UniProt Q9UM07).
OUT: 6.12

IN: Lab request: please report pIC50 under test system Protein-arginine deiminase type-4 (Homo sapiens, UniProt Q9UM07) for N=C(CCl)NCCC[C@H](NC(=O)c1cc2c([nH]c3ccccc32)c(-c2ccncc2)n1)C(=O)NCc1ccccc1
OUT: 5.46

IN: # returns recorded pIC50 (system: Protein-arginine deiminase type-4 (Homo sapiens, UniProt Q9UM07)) for N=C(CCl)NCCC[C@H](NC(=O)c1cc2c(cn1)[nH]c1ccccc12)C(=O)NCc1ccccc1
OUT: 5.75

IN: Short answer please: pIC50, Protein-arginine deiminase type-4 (Homo sapiens, UniProt Q9UM07), entry CC(C)c1ccc(-c2nc(C(=O)N[C@@H](CCCNC(=N)CCl)C(=O)NCc3ccccc3)cc3c2[nH]c2ccccc23)cc1
OUT: 5.16

IN: Form: Entry = N=C(CCl)NCCC[C@H](NC(=O)c1cc2c([nH]c3ccccc32)c(-c2cccs2)n1)C(=O)NCc1ccccc1 | System = Protein-arginine deiminase type-4 (Homo sapiens, UniProt Q9UM07) | pIC50 = ____
OUT: 5.88

IN: Observed pIC50 on Protein-arginine deiminase type-4 (Homo sapiens, UniProt Q9UM07) for Cc1ccc(-c2nc(C(=O)N[C@@H](CCCNC(=N)CCl)C(=O)NCc3ccccc3)cc3c2[nH]c2ccccc23)cc1 , please.
OUT: 5.00

IN: # query: pIC50 | item N=C(CCl)NCCC[C@H](NC(=O)c1cc2c([nH]c3ccccc32)c(-c2ncc[nH]2)n1)C(=O)NCc1ccccc1 | system: Protein-arginine deiminase type-4 (Homo sapiens, UniProt Q9UM07)
OUT: 5.51

IN: Give the reported pIC50 for N=C(CCl)NCCC[C@H](NC(=O)c1cc2c([nH]c3ccccc32)c(-c2ccc(Cl)cc2)n1)C(=O)NCc1ccccc1 (system: Protein-arginine deiminase type-4 (Homo sapiens, UniProt Q9UM07)).
OUT: 5.95

IN: What measured pIC50 is associated with N=C(CCl)NCCC[C@H](NC(=O)c1cc2c([nH]c3ccccc32)c(C2CC2)n1)C(=O)NCc1ccccc1 on Protein-arginine deiminase type-4 (Homo sapiens, UniProt Q9UM07)?
OUT: 6.21

IN: Return pIC50 measured with Protein-arginine deiminase type-4 (Homo sapiens, UniProt Q9UM07) given this compound: N=C(CCl)NCCC[C@H](NC(=O)c1cc2c([nH]c3ccccc32)c(-c2ccc3ccccc3n2)n1)C(=O)NCc1ccccc1
OUT: 4.88
